Multiple publications report IC50 for Prostaglandin G/H synthase 2 (Homo sapiens); what follows is a combined list.

>>> reported_measurement("Nc1cccc(NC(=O)c2cccc(C(F)(F)F)c2)c1")
"> 100 µM"
>>> reported_measurement("CCCOCCCSc1ccccc1OC(C)=O")
"> 50 µM"
>>> reported_measurement("COc1ccc(-c2csc(Nc3ccc4c(c3)OCO4)n2)cc1")
"0.91 µM"
>>> reported_measurement("CN(C)c1ccccc1C(=O)NCCc1c[nH]c2ccccc12")
"> 40 µM"
>>> reported_measurement("CCCCCCCN(C)c1ccccc1OC(C)=O")
"> 40 µM"

# next molecule below
Ask: So what's the measured IC50 for this one? Nc1ccccc1C(=O)Nc1ccccc1C(F)(F)F
Result: > 100 µM
